Kindly state flash point for each of the entries shown.

Take a look at these entries with their results.
Compound	flash point
CCc1ccc(C)c(C)c1	58 °C
CC(=O)O	40 °C
CCCCC(=O)OCC [ethylpentanoate]	35 °C

I have 3 compounds here; please give me flash point for each one.
1. O=Cc1ccco1
2. O=[N+]([O-])c1ccccc1
3. CCCCCCCCc1ccccc1

Response:
58 °C
88 °C
107 °C

I have 2 compounds here; please give me flash point for each one.
1. CC(C)COC=O [isobutylformate]
2. CCCNCCC

Response:
1. 4 °C
2. 7 °C

I have 4 compounds here; please give me flash point for each one.
1. Cc1ccc(I)cc1
2. CCCCCBr
3. CCC(C)C(C)CC (stereo unspecified)
4. CC(C)CNCC(C)C

Response:
1: 90 °C; 2: 30 °C; 3: 6 °C; 4: 30 °C
